// provenance: patent US4032573A

System: guinea pigs
METHOD: Local anesthetic activity in guinea pigs (method of Bulbring and Waida), intracutaneous injection
Format: in vivo
RECORDED METRIC: Local anesthetic activity in guinea pigs ED50 intracutaneous injection (W/V %)

INSERT INTO results (molecule, value_observed) VALUES
  ('CCN(CC)CCC(=O)Nc1cc(C(C)=O)ccc1C', 1.48),
  ('CCN(CC)CCC(=O)Nc1c(C)cccc1C(C)=O', 0.33),
  ('CCN(CC)CC(=O)Nc1c(C)cccc1C(C)=O', 0.12),
  ('CCCC(=O)c1cccc(C)c1NC(=O)CCN(CC)CC', 0.09),
  ('CCN(CC)CC(=O)Nc1ccc(C(C)=O)cc1', 1.0),
  ('CCN(CC)CC(=O)Nc1cccc(C(C)=O)c1', 1.0);
